- TESTED_TARGET: Torsin-1A (Homo sapiens) (UniProt O14656)
- Sequence (O14656 whole entry, looked up): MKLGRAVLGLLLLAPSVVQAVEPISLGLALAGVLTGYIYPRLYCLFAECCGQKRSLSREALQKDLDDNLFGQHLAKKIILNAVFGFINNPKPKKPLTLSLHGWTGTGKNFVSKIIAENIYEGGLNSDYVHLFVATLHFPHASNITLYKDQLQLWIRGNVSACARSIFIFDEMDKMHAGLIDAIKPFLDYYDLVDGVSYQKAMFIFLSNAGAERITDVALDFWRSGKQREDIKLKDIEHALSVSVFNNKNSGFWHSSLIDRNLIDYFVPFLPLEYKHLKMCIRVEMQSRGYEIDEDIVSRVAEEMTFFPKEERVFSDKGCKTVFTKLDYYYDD
- ASSAY_EXPLANATION: torsin A mutant lysate binding on microarrays – cell lysate, small-molecule microarray, COS7 lysate, 635/667 nm fluorescence, primary screen (AID 1150);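 note: score pools 667 nm emission and signal to noise measuring lysate protein binding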
- CONDITION_SET: COS7 hTOR1A mutant lysate, 635 nm fluorescence, higher = more signal
Please use the following composite z-score ranges when assigning a class: low group: < 0.09; middle group: ≥ 0.09 and < 0.6; high group: ≥ 0.6

Here's what some known entries look like.
COMPOUND: OCc1ccc(C2=CC(c3cccs3)N(Cc3cccc(OC(F)(F)F)c3)CC2)cc1 (configuration not stated)
LABEL_CLASS: high group
//
COMPOUND: c1ccc(-c2cc3c(nc2-c2ccccc2)CCNC3)cc1
LABEL_CLASS: low group
//
COMPOUND: COC(=O)[C@H]1[C@@H](O)[C@@]2(O)c3c(OC)cc(OC)cc3O[C@@]2(c2ccc(OC)cc2)[C@@H]1c1ccccc1
LABEL_CLASS: middle group
//
COMPOUND: CCOC(=O)[C@H]1CC=C2C(=O)Oc3ccc(Br)cc3[C@@H]21
LABEL_CLASS: middle group
//
COMPOUND: C[C@@H]1Cc2c(cnc3c2CN(C)CC3)CO1
LABEL_CLASS: high group

Which of the defined bands does the recorded composite z-score of COc1cc2c(cc1O)C(C)N(C)CC2 (configuration not stated) sit within? low group

Category lookup for the compound `CCc1cc2c(nc1CC)CCN(CCC(C)=NOC)C2` high group

Lab log: `COC(=O)[C@@]1(Cc2ccc(F)cc2)[C@H]2c3cc(C(=O)N(C)C)[nH]c3C[C@H]2CN1C(=O)c1ccccc1` — assign composite z-score category middle group

Band for `CCOC(=O)[C@H]1CC=C2C(=O)Oc3ccccc3[C@@H]21` ? low group

Input CCCc1cc2c(n1Cc1cccc(Cl)c1)C(C)C1CN(C(=O)c3ccccc3)C(C)(C(=O)OC)C21 (configuration not stated) ; output its category high group

Tag the class for `COC(=O)[C@@]1(Cc2ccccc2)[C@H]2c3cc(C(=O)N(C)C)[nH]c3C[C@H]2CN1C(=O)c1ccccc1` low group

Band for the recorded composite z-score of OCc1ccc(C2=CC(C3CC3)N(Cc3sc4ccccc4c3Cl)CC2)cc1 (configuration not stated) ? high group

Assign a bin to `C=C(CC1(CNP(=O)(c2ccccc2)c2ccccc2)CC1)c1ccccc1` middle group

Class label required: `C[C@@H]1OC=C2[C@@H](O)[C@H]3O[C@H]3C(=O)[C@]23[C@H]1[C@H]1C2=C([C@@H](O)[C@H]4O[C@H]4C2=O)[C@@H]3O[C@@H]1C` middle group

Into which bin does this compound go? O=P(c1ccccc1)(c1ccccc1)N1CC2(CC2)CC(O)(c2ccccc2)C1 (configuration not stated) low group

Field: class (composite z-score) — entry: CN1CCC(c2ccc(CO)cc2)=CC1c1cccs1 (configuration not stated) middle group

Hi, small favor: classify COC(=O)C1(C)C=C2C(=C(C)C(=O)C2C)CN1 (configuration not stated) by its composite z-score when you get a moment. low group

Quick check: band for `CCCC[C@@H]1C[C@H]1[C@@H](NP(=O)(c1ccccc1)c1ccccc1)c1ccc(Cl)cc1` low group

Classify this compound: `CN1CCc2nc(CO)c(CO)cc2C1` middle group

Note: place this compound into its band. Item: CCCc1cc2c(n1Cc1ccco1)C(C)C1CN(C(=O)c3ccccc3)C(C)(C(=O)OC)C21 (configuration not stated) high group

Form: Item = `COC(=O)[C@H]1C(=O)c2ccccc2O[C@@](C(=O)OC)(c2ccccc2)[C@@H]1c1ccccc1` ; Class = ? low group

Hello team, could you let me know which band the following compound falls into: CCCc1cc2c(n1CCO)C(C)C1CN(C(=O)c3ccccc3)C(C)(C(=O)OC)C21 (configuration not stated) high group

====

- TESTED_TARGET: Fibroblast growth factor 10 (Homo sapiens) (UniProt O15520)
- Sequence (O15520 whole entry, looked up): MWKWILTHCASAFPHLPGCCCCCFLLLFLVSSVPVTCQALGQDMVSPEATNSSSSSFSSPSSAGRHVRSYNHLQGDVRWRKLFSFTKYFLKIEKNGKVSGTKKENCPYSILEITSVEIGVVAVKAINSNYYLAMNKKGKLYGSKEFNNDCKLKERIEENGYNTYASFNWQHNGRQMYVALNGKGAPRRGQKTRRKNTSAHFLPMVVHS
- ASSAY_EXPLANATION: compounds binding fibroblast growth factor 10 – biochemical, small-molecule microarray, 635 nm fluorescence, primary screen (AID 1102)
- CONDITION_SET: FGF10 binding, fluorescence 635 nm, higher = more signal
RESULT_TYPE: composite z-score
Numbers only.

COMPOUND: CCCc1cc2c(n1Cc1cccc(Cl)c1)C(C)C1CN(C(=O)c3ccccc3)C(C)(C(=O)OC)C21 (stereo not given)
RECORDED_RESULT: 0.368

Could you tell me composite z-score for each of these compounds? They are listed below.
1. CCCC[C@@H]1C[C@H]1[C@@H](NP(=O)(c1ccccc1)c1ccccc1)c1ccc(Cl)cc1
2. COC(=O)[C@@]1(Cc2ccc(F)cc2)[C@H]2c3cc(C(=O)N(C)C)[nH]c3C[C@H]2CN1C(=O)c1ccccc1
3. CCCc1cc2c(n1Cc1ccc(C)cc1)C(C)C1CN(C(=O)c3ccccc3)C(C)(C(=O)OC)C21 (stereo not given)

1: -0.668; 2: 0.554; 3: 1.15

# batch size: 6; output composite z-score per entry
1. OCc1ccc(C2=CC(C3CC3)N(Cc3sc4ccccc4c3Cl)CC2)cc1 (stereo not given)
2. CCc1cc2c(nc1CC)CCN(CCC(C)=NOC)C2
3. CCOC(=O)[C@H]1CC=C2C(=O)Oc3ccccc3[C@@H]21
4. COC(=O)C1(C)C=C2C(=C(C)C(=O)C2C)CN1 (stereo not given)
5. c1ccc(-c2cc3c(nc2-c2ccccc2)CCNC3)cc1
6. CCCC=C(CCC)[C@@H](NP(=O)(c1ccccc1)c1ccccc1)c1ccccc1

0.458
0.179
-0.375
-0.618
-0.757
0.657

====

- ASSAY_EXPLANATION: hepatitis C replication reporter changes, two-sided – Huh7 cells, luciferase reporter, HCV replication inhibitor project, primary screen (AID 1109);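 note: huh7 hepatoma cells harbouring a luciferase neomycin HCV replicon reporter; luciferase luminescence as measure of HCV replicon replication; test concentration not given here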
- CONDITION_SET: Huh7 HCV replicon luciferase reporter, 48 h; higher = more signal
RESULT_TYPE: z-score
Give bare numbers.

Record excerpt, results attached:
COMPOUND: CCCc1cc2c(n1Cc1cccc(Cl)c1)C(C)C1CN(C(=O)c3ccccc3)C(C)(C(=O)OC)C21 (stereo not given)
RECORDED_RESULT: -2.24
//
COMPOUND: CCCc1cc2c(n1CCO)C(C)C1CN(C(=O)c3ccccc3)C(C)(C(=O)OC)C21 (stereo not given)
RECORDED_RESULT: -1.27
//
COMPOUND: COC(=O)[C@@]1(Cc2ccc(F)cc2)[C@H]2c3cc(C(=O)N(C)C)[nH]c3C[C@H]2CN1C(=O)c1ccccc1
RECORDED_RESULT: -0.0885
//
COMPOUND: CCOC(=O)[C@H]1CC=C2C(=O)Oc3ccccc3[C@@H]21
RECORDED_RESULT: -1.93

Attention now turns to another entry.
Request the reported z-score associated with CN1CCC(c2ccc(CO)cc2)=CC1C1CC1 (stereo not given) -0.954

====

- TESTED_TARGET: Homeobox protein Hox-A13 (Mus musculus)
- ASSAY_EXPLANATION: disruptors of Hoxa13 oligonucleotide interaction – biochemical, fluorescence polarization, labeled oligonucleotide, primary screen (AID 1185)
- CONDITION_SET: Hoxa13:DNA binding, 15 min; higher = more signal, called active from +8 up or from −8 down unless noted
Calls of active or inactive are those of the source.
RESULT_TYPE: z-score

Below, 7 compounds whose answers are already recorded.
COMPOUND: COC(=O)[C@H]1[C@H](c2ccccc2)C(=O)[C@]2(O)c3ccccc3O[C@@]12c1ccccc1
TESTED_TARGET: Homeobox protein Hox-A13 (Mus musculus)
RESULT_TYPE: z-score
RECORDED_RESULT: -0.116 (inactive)

COMPOUND: OCc1ccc(C2=CC(C3CC3)N(Cc3sc4ccccc4c3Cl)CC2)cc1 (stereo not drawn)
TESTED_TARGET: Homeobox protein Hox-A13 (Mus musculus)
RESULT_TYPE: z-score
RECORDED_RESULT: 3.12 (inactive)

COMPOUND: COC(=O)[C@@]1(Cc2ccc(F)cc2)[C@H]2c3cc(C(=O)N(C)C)[nH]c3C[C@H]2CN1C(=O)c1ccccc1
TESTED_TARGET: Homeobox protein Hox-A13 (Mus musculus)
RESULT_TYPE: z-score
RECORDED_RESULT: -4.26 [setting not given] (inactive)

COMPOUND: CCCc1cc2c(n1Cc1ccc(C)cc1)C(C)C1CN(C(=O)c3ccccc3)C(C)(C(=O)OC)C21 (stereo not drawn)
TESTED_TARGET: Homeobox protein Hox-A13 (Mus musculus)
RESULT_TYPE: z-score
RECORDED_RESULT: -2.8 (inactive)

COMPOUND: CCCc1cc2c(n1Cc1ccco1)C(C)C1CN(C(=O)c3ccccc3)C(C)(C(=O)OC)C21 (stereo not drawn)
TESTED_TARGET: Homeobox protein Hox-A13 (Mus musculus)
RESULT_TYPE: z-score
RECORDED_RESULT: -4.51 (inactive)

COMPOUND: C[C@H]1O[C@H]2C3=C(C(=O)[C@@H]4O[C@@H]4[C@@H]3O)[C@@H]1[C@@H]1[C@@H](C)OC=C3[C@@H](O)[C@H]4O[C@H]4C(=O)[C@]312
TESTED_TARGET: Homeobox protein Hox-A13 (Mus musculus)
RESULT_TYPE: z-score
RECORDED_RESULT: -0.276 (inactive)

COMPOUND: O=P(c1ccccc1)(c1ccccc1)N1CC2(CC2)CC(O)(c2ccccc2)C1 (stereo not drawn)
TESTED_TARGET: Homeobox protein Hox-A13 (Mus musculus)
RESULT_TYPE: z-score
RECORDED_RESULT: -2.7 (inactive)

Consider now this further compound.
Find the recorded z-score belonging to `COC(=O)[C@H]1[C@@H](O)[C@@]2(O)c3c(OC)cc(OC)cc3O[C@@]2(c2ccc(OC)cc2)[C@@H]1c1ccccc1` and report it. -0.0317 (inactive)
